Provenance of the data: the CATMoS acute toxicity set (Mansouri et al. 2021)

# Method Summary: GHS categories as the set defines them, by LD50: 1 up to 5, 2 up to 50, 3 up to 300, 4 up to 2000, 5 above 2000 mg/kg
# Test Conditions: rat; in vivo; po
Measured GHS category of individual entries
Assay Endpoint: GHS category

> print(dat)
                                   compound  result.value
1                CNC(=O)Oc1ccc(N(C)C)c(C)c1             2
2  O=C(Cn1cnnn1)N[C@@H]1C(=O)N2C(C(=O)O)=C(CSc3nncs3)CS[C@H]12             5
3  CC1(C)C[C@@H]1C(=O)N/C(=C\CCCCSC[C@H](N)C(=O)O)C(=O)O             5
4       Cc1cccc2ncc(C(=O)NC(C)(C)C)c(=O)n12             3
5             CCCC/C=C/CC/C=C\CCCCCCOC(C)=O             5
6                            Nc1cnn(CCO)c1N             5
7  CCCC1CCC(=O)O1 (configuration not stated)             5

###

Form field: GHS category (one value per entry).
# Method Summary: GHS categories as the set defines them, by LD50: 1 up to 5, 2 up to 50, 3 up to 300, 4 up to 2000, 5 above 2000 mg/kg
# Test Conditions: rat; in vivo; po
Assay Endpoint: GHS category

> print(dat)
                                   molecule  result.value
1  CC(C)=CCCC(C)CCOCC=O (configuration not stated)             5
2                           CCCCCCCCC(=O)NO             5
3  CCOC(=O)NC1CCCN(c2nc(N)c3cc(OC)c(OC)cc3n2)C1 (configuration not stated)             4
4              CCCNC(=O)c1cnc2c(C)cccn2c1=O             3
5  FC(F)(F)c1cccc(C(c2ccccc2)(c2ccccc2)n2cncn2)c1             5
6                            O=C(O)CCC(=O)O             5
7           CCCC(CCC)C(=O)Oc1cc(C)ccc1C(C)C             5

###

# Method Summary: GHS categories as the set defines them, by LD50: 1 up to 5, 2 up to 50, 3 up to 300, 4 up to 2000, 5 above 2000 mg/kg
# Test Conditions: rat; in vivo; po
Assay Endpoint: GHS category

> print(dat)
                                    compound  assay.endpoint  result.value
 1                     Clc1ccc(C2=NCOCS2)cc1    GHS category             4
 2            COCCNC(=O)c1ccnc(C(=O)NCCOC)c1    GHS category             5
 3  O=C(Nc1ccc(F)cc1F)c1cccnc1Oc1cccc(C(F)(F)F)c1    GHS category             5
 4  CCCc1nc2ccnn2c(NCCN2CCCC2)c1Cc1ccc(-c2ccccc2-c2nn[nH]n2)cc1    GHS category             4
 5  CC(C)(O/N=C(\C(=O)N[C@@H]1C(=O)N2C(C(=O)[O-])=C(C[n+]3ccccc3)CS[C@H]12)c1csc(N)n1)C(=O)O    GHS category             5
 6  CCOC(C)C(C=NNC(N)=S)=NNC(N)=S (stereo not drawn)    GHS category             5
 7                                 CCCCCOC=O    GHS category             5
 8  O=C(NNCc1ccccc1)C(O)C(O)C(O)CO (stereo not drawn)    GHS category             5
 9               C=CC(=C)CC/C=C(\C)CCC=C(C)C    GHS category             5
10  C=CC(C)(O)CCC=C(C)CCC=C(C)C (stereo not drawn)    GHS category             5
11                     CCOP(=O)(OCC)c1ccccc1    GHS category             4
12          CCOC(=O)C(=O)Nc1cccc(OC)c1C(N)=O    GHS category             5
13                N[C@@H](Cc1cnc[nH]1)C(=O)O    GHS category             5
14  CCC(=O)O[C@]1(C(C)=O)CC[C@H]2[C@@H]3CCC4=CC(=O)C=C[C@]4(C)[C@H]3[C@@H](O)C[C@@]21C    GHS category             5
15  Nc1cc(C(=O)NCC(O)CO)cc(C(=O)NCC(O)CO)c1 (stereo not drawn)    GHS category             5
16                  CCN(CC)C(=O)CCSCc1nnnn1C    GHS category             4
17  CC(=O)Nc1ccc(/N=N/c2c(S(=O)(=O)O)cc3cc(NC(=O)Nc4ccc5c(O)c(/N=N/c6ccccc6)c(S(=O)(=O)O)cc5c4)ccc3c2O)cc1    GHS category             5
18  CC1(C)S[C@@H]2[C@H](N3C(=O)C(c4ccccc4)NC3(C)C)C(=O)N2[C@H]1C(=O)O (stereo partly drawn)    GHS category             5
19  COC(=O)c1cc(Oc2ccc(C(=O)OC)cc2N)cc(C(=O)OC)c1    GHS category             5
20             Nc1ccc(NCCO)c([N+](=O)[O-])c1    GHS category             4
21  CCCCOC(=O)CC(O)C(=O)OCCCC (stereo not drawn)    GHS category             5
22  NC(=O)OC[C@@H]1[C@H](NC(=O)/C(=N\OCC(=O)O)c2csc(N)n2)C(=O)N1S(=O)(=O)O    GHS category             5
23                       O=C1NCCCN1CN1CCOCC1    GHS category             5

###

# Method Summary: GHS categories as the set defines them, by LD50: 1 up to 5, 2 up to 50, 3 up to 300, 4 up to 2000, 5 above 2000 mg/kg
# Test Conditions: rat; in vivo; po
Assay Endpoint: GHS category

> print(dat)
                                    compound  assay.endpoint  result.value
 1   CCCCOC(=O)Nc1nc(N2CC=CCC2)cc2nc(=O)on12    GHS category             5
 2            CCCCCOc1ccc(-c2ccc(C#N)cc2)cc1    GHS category             5
 3  CCCc1ccc(OCC(=O)N2CCN(C(=O)COc3ccc(CCC)cc3OC)CC2)c(OC)c1    GHS category             4
 4        CCCCCCCCCCCC(=O)OOC(=O)CCCCCCCCCCC    GHS category             5
 5  CN(C)C(=O)OC1N=C(c2ccccc2)c2cc(Cl)ccc2N(C)C1=O (stereo unspecified)    GHS category             5
 6  CNc1cc(OC)c(C(=O)N[C@H]2CCN(Cc3ccccc3)[C@H]2C)cc1Cl    GHS category             4
 7                          CCOC(=O)CCC(C)=O    GHS category             5
 8  Cc1ccc(C(=O)Oc2ccc(C(O)CNC(C)(C)C)cc2OC(=O)c2ccc(C)cc2)cc1 (stereo unspecified)    GHS category             5
 9  COc1ccc2c(c1)CCN(c1ccccc1)C2c1ccc(O)cc1 (stereo unspecified)    GHS category             4
10  Cc1ccc(S(=O)(=O)NC(=O)Nc2cccc(OS(=O)(=O)c3ccc(C)cc3)c2)cc1    GHS category             5
11    CCCCCCCCCCCCCCCCCCSSCCCCCCCCCCCCCCCCCC    GHS category             5

###

In this section, each of the compounds is paired with its reported LD50.
# Method Summary: rat acute oral toxicity
# Test Conditions: in vivo
Assay Endpoint: LD50 (mg/kg)

> print(dat)
                                   compound  result.value
1  CN(CC[C@H](N)CC(O)=N[C@H]1C=C[C@H](n2ccc(=N)nc2O)O[C@@H]1C(=O)O)C(=N)N          53.3
2  CC(=O)c1cc2c(cc1C)C(C)(C)C(C)CC2(C)C (configuration not stated)           920
3  CC1OC(C)OC(C)O1 (configuration not stated)          1530
4            CN(C)CCC=C1c2ccccc2CCc2ccccc21           280
5                               C=Cc1ccccc1          1000
6  CSc1ccc2c(c1)N(CCC1CCCCN1C)c1ccccc1S2 (configuration not stated)           995
7                       N#CSCSc1nc2ccccc2s1           679
